TESTED TARGET: Aldo-keto reductase family 1 member C3 (Homo sapiens, UniProt P42330)
Sequence (P42330 whole entry): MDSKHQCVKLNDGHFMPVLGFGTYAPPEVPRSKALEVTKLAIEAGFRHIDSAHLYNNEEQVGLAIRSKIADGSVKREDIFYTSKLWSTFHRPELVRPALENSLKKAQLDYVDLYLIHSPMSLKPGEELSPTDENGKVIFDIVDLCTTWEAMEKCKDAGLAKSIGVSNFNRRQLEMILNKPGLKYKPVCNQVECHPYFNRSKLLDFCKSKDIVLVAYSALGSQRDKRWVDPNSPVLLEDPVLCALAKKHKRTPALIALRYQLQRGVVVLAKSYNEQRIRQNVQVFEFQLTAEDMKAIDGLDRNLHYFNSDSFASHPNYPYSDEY
PROTOCOL TEXT: Inhibition of AKR1C3 (unknown origin) expressed in human HCT116 cells assessed as formation of PR-104H from PR-104A preincubated for 2 hrs
Type: cell-based, HCT-116
Examples of compounds with documented IC50 follow.
ENDPOINT NAME: IC50 (nM)

>>> observed_result("O=C(N1CCOCC1)N1CCN(c2ccc(C(F)(F)F)cc2)CC1")
22
>>> observed_result("O=C(N1CCOCC1)N1CCN(c2ccc(Br)cn2)CC1")
31
>>> observed_result("O=C(N1CCOCC1)N1CCN(c2ccc(I)cc2)CC1")
10
